Molecular target: TRPA1 (UniProt O75762)
Construct: other: cells expressing A1+V1; other: cells expressing A1+V1+Tmem100
Assay: Calcium imaging of HEK293T cells expressing TRPA1 and TRPV1 (MO or CA)
Format: cell-based
Conditions: cells expressing A1+V1+Tmem100

{"compound": "O=CC=Cc1ccccc1 [CA, cinnamaldehyde, reference compound]", "EC50 (µM)": 21}

* * *

Target: TRPA1 (UniProt O75762)
Construct: other: cells expressing A1+V1; other: cells expressing A1+V1+Tmem100
Experiment: Calcium imaging of HEK293T cells expressing TRPA1 and TRPV1 (MO or CA)
Assay type: cell-based
Settings: cells expressing A1+V1
pEC50: −log10 of the molar value.
readoutKind: pEC50

{"compound": "O=CC=Cc1ccccc1 [CA, cinnamaldehyde, reference compound]", "valueReported": 4.24}
